For each of the molecules below, state its % Rmax hCD64.
- Target Desc: CD64 (FcgRI) (Homo sapiens, UniProt P12314)
- Sequence (P12314 16-374): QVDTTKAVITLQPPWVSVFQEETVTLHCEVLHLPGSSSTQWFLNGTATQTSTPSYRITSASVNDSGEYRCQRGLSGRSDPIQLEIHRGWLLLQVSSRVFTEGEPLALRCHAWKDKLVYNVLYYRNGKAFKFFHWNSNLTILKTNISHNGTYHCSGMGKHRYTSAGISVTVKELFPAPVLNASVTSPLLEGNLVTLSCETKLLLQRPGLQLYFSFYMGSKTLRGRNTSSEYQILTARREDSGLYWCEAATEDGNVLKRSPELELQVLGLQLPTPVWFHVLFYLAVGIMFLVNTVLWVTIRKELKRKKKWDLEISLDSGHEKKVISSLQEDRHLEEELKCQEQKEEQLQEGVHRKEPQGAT
- Assay: SPR, antibody binding to anti-his Fab captured FcgR-his (% Rmax)
- Assay Conditions: 1 μM antibody
Use % as the unit, but write only the number.

[ask] # input molecule: mAb7-IgG2.5 (protein, left off: another chain or arm of the molecule) constant: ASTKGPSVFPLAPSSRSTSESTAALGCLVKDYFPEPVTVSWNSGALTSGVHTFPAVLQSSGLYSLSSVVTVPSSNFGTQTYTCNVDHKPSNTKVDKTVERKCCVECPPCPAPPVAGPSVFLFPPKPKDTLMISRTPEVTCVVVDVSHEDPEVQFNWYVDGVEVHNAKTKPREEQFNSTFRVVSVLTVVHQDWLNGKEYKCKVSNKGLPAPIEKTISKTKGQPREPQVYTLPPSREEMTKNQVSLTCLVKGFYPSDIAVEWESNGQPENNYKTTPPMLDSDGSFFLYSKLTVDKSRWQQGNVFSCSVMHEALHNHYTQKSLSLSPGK ; wanted: its % Rmax hCD64
[reply] 4

[ask] Proceed to mAb12-IgG2.3 (protein, left off: another chain or arm of the molecule) constant: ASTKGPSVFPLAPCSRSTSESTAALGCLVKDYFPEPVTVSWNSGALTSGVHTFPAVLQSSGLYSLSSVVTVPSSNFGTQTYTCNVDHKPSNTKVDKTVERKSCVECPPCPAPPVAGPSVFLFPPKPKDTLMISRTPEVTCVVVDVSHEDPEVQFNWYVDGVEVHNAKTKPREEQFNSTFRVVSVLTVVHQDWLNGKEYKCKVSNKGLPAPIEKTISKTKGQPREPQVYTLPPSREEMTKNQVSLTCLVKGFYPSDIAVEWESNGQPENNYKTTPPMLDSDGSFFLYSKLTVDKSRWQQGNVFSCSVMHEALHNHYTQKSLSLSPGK
[reply] 2
